biological target: CYP19 (aromatase) (Homo sapiens, UniProt P11511); assay: Inhibition of human placental CYP19 at 500 nM
Sequence (P11511 whole entry): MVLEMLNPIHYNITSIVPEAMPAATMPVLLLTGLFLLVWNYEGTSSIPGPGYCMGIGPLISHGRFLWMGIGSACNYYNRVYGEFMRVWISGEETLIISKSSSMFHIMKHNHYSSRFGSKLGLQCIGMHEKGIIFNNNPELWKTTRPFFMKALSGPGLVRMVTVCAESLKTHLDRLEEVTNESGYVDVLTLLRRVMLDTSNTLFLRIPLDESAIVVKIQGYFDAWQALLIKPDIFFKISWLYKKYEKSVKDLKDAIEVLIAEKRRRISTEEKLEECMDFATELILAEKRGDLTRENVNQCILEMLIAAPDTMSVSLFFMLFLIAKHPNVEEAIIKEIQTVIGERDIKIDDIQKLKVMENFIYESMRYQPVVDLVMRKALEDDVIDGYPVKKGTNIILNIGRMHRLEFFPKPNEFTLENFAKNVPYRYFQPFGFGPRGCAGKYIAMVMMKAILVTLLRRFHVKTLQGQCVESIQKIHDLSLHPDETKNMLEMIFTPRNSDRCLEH
The entries below come with measured inhibition at 0.5 µM values attached.
Provide the reading as a plain figure in %.

Example molecules with recorded inhibition at 0.5 µM:
smiles.notation	number
COc1ccc2cc(-c3cncc4ccccc34)ccc2c1	7
COc1cncc(-c2ccc3cc(OC)ccc3c2)c1	14

Let us move to another entry and its inhibition at 0.5 µM.
[in] Return inhibition at 0.5 µM (reported value) for this molecule: "COc1ccc2cc(-c3cnccc3N)ccc2c1"
[out] 47

###

The entries below come with measured pIC50 values attached.
molecular target: Cytochrome P450 3A4 (Homo sapiens); assay: Inhibition of human recombinant CYP3A4 expressed in insect microsomes
Sequence (P08684 whole entry): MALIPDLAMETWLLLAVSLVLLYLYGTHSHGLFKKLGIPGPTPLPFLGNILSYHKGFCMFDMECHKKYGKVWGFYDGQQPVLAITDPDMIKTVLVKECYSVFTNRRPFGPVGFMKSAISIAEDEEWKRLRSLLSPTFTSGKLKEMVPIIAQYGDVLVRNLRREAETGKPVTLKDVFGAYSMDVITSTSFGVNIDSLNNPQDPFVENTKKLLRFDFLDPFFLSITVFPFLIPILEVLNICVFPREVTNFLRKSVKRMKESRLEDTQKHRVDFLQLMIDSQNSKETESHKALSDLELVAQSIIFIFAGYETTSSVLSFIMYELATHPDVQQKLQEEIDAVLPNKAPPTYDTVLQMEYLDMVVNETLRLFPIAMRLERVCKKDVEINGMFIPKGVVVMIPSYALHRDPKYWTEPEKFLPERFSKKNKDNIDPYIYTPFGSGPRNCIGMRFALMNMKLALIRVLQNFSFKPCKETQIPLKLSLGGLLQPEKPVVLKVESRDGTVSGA
pIC50 is a log-scale quantity: -log10 of the concentration expressed in molar.

smiles.notation	pIC50
COc1cncc(-c2ccc3cc(OC)ccc3c2)c1	5.72
COc1ccc2cc(-c3cncc(C(C)=O)c3)ccc2c1	5.04
COc1ccc2cc(-c3cncc4ccccc34)ccc2c1	5.45

Let us move to another entry and its pIC50.
[in] Fill in pIC50 for "COc1ccc2cc(-c3cnccc3N)ccc2c1" tested with Cytochrome P450 3A4 (Homo sapiens).
[out] 4.68
